Origin of the recorded values: patent US9376418B2

Measurement Target: recombinant human GST-SYK (Homo sapiens, UniProt P43405)
Construct: purchased Carna Biosciences 08-176
Assay Method Text: Homogeneous Time-Resolved Fluorescence (HTRF) assay for the recombinant human Syk enzyme
Format: biochemical
Test Parameters: HTRF assay, recombinant human GST-SYK; IC50 given as class symbols; read-out: rhSYK Activity
Readout Type: IC50

In the examples that follow, each entry is paired with its recorded IC50.
Cc1cc(Nc2nccc(C(F)(F)F)n2)cc(-c2ccc(NC(C)(C)c3nnn[nH]3)nc2)c1 ... < 100 nM
Cc1cc(Nc2nccc(C(F)(F)F)n2)cc(-c2ccc(NCCCO)nc2)c1 ... < 100 nM

IN: Identify measured IC50 corresponding to `Cc1cc(Nc2nccc(C(F)(F)F)n2)cc(-c2ccc(N[C@H]3CC[C@H](C(=O)O)CC3)nc2)c1`
OUT: < 100 nM

IN: Identify measured IC50 corresponding to Cc1cc(Nc2nccc(C(F)(F)F)n2)cc(-c2ccc(C(C)(O)c3ccc(C(N)=O)cc3)nc2)c1 (centres unmarked)
OUT: < 100 nM

IN: Identify measured IC50 corresponding to CC1(C)CC(O)(c2ccc(-c3cc(F)cc(Nc4nccc(C(F)(F)F)n4)c3)cn2)CCC1C(=O)O (single isomer, unassigned) [Example 9.14]
OUT: < 100 nM

IN: Identify measured IC50 corresponding to `Nc1cc(Nc2nccc(C(F)(F)F)n2)cc(-c2ccncc2)c1`
OUT: < 100 nM

IN: Identify measured IC50 corresponding to `CNCc1ccc(-c2cc(C)cc(Nc3nccc(C(F)(F)F)n3)c2)cn1`
OUT: < 100 nM

IN: Identify measured IC50 corresponding to OC(c1ccccc1)c1ccc(-c2cccc(Nc3nccc(C(F)(F)F)n3)c2)cn1 (centres unmarked)
OUT: 100 to 1000 nM

---

Measurement Target: recombinant human GST-SYK (Homo sapiens)
Construct: purchased Carna Biosciences 08-176
Assay Method Text: Homogeneous Time-Resolved Fluorescence (HTRF) assay for the recombinant human Syk enzyme
Type: biochemical
Test Parameters: HTRF assay, recombinant human GST-SYK; IC50 given as class symbols; read-out: rhSYK Activity
pIC50: −log10 of the molar value.
Readout Type: pIC50

COCC1CCCN1c1ccc(-c2cc(C)cc(Nc3nccc(C(F)(F)F)n3)c2)cn1 (centres unmarked) ... 6.00 to 7.00

IN: Identify measured pIC50 corresponding to CCC(CO)Nc1cc(-c2cc(C)cc(Nc3nccc(C(F)(F)F)n3)c2)ccn1 (centres unmarked)
OUT: > 7.00

IN: Identify measured pIC50 corresponding to `Cc1cc(Nc2nccc(C(F)(F)F)n2)cc(-c2cncc(C(C)(C)O)c2)c1`
OUT: > 7.00

---

Measurement Target: recombinant human GST-SYK (Homo sapiens)
Construct: purchased Carna Biosciences 08-176
Assay Method Text: Homogeneous Time-Resolved Fluorescence (HTRF) assay for the recombinant human Syk enzyme
Type: biochemical
Test Parameters: HTRF assay, recombinant human GST-SYK; IC50 given as class symbols; read-out: rhSYK Activity
pIC50: −log10 of the molar value.
# pIC50 annotations

In the examples that follow, each entry is paired with its recorded pIC50.
COc1cc(-c2cc(C)cc(Nc3nccc(C(F)(F)F)n3)c2)ccn1 ... 6.00 to 7.00
Cc1cc(Nc2nccc(C(F)(F)F)n2)cc(-c2ccc(NC3CCNC3=O)nc2)c1 (stereo not shown) [Example 7.22] ... > 7.00
Cc1cc(Nc2nccc(C(F)(F)F)n2)cc(-c2ccc(N3CCC(C(N)=O)CC3)nc2)c1 ... > 7.00
Cc1cc(Nc2nccc(C(F)(F)F)n2)cc(-c2ccc(C(=O)NC3(CO)CC3)nc2)c1 ... 6.00 to 7.00
Cc1cc(Nc2nccc(C(F)(F)F)n2)cc(-c2ccnc(N3CC(O)C3)c2)c1 ... > 7.00

IN: Identify measured pIC50 corresponding to Cc1cc(Nc2nccc(C(F)(F)F)n2)cc(-c2ccc(C(C)(O)c3ccc(C(=O)O)cc3)nc2)c1 (stereo not shown)
OUT: > 7.00

IN: Identify measured pIC50 corresponding to COc1ccnc(Nc2cc(C)cc(-c3ccc(C(C)(O)[C@H]4CC[C@H](C(=O)O)CC4)nc3)c2)n1 (single isomer, unassigned) [Example 9.28]
OUT: > 7.00

IN: Identify measured pIC50 corresponding to `Cc1cc(Nc2nccc(C(F)(F)F)n2)cc(-c2ccnc(N3CCC(F)(F)CC3)c2)c1`
OUT: 6.00 to 7.00

IN: Identify measured pIC50 corresponding to CCC(C)(C#N)Nc1ccc(-c2cc(C)cc(Nc3nccc(C(F)(F)F)n3)c2)cn1 (stereo not shown) [Example 7.118]
OUT: > 7.00

IN: Identify measured pIC50 corresponding to Cc1cc(Nc2nccc(C(F)(F)F)n2)cc(-c2cncc(C3(O)CCC(C(=O)O)C3)c2)c1 (stereo not shown) [Example 9.67]
OUT: > 7.00

IN: Identify measured pIC50 corresponding to `NC(=O)c1ccnc(-c2cccc(Nc3nccc(C(F)(F)F)n3)c2)c1`
OUT: 6.00 to 7.00

IN: Identify measured pIC50 corresponding to `Cc1cc(Nc2nccc(C)n2)cc(-c2ccc([C@]3(O)CC[C@H](C(=O)O)CC3)nc2)c1`
OUT: > 7.00

IN: Identify measured pIC50 corresponding to `Cc1cc(Nc2nccc(C(F)(F)F)n2)cc(-c2ccnc(N3CCC4(CCN(C)C4=O)CC3)c2)c1`
OUT: 6.00 to 7.00

IN: Identify measured pIC50 corresponding to `Cc1cc(Nc2nccc(C(F)(F)F)n2)cc(-c2ccnc(NC[C@@H](C)O)c2)c1`
OUT: > 7.00

IN: Identify measured pIC50 corresponding to `CCOC(=O)Cc1ccc(-c2cccc(Nc3nccc(C(F)(F)F)n3)c2)nc1`
OUT: 6.00 to 7.00

IN: Identify measured pIC50 corresponding to `Cc1cc(Nc2nccc(C(F)(F)F)n2)cc(-c2ccc(C(=O)N(C)Cc3n[nH]c(=O)[nH]3)nc2)c1`
OUT: > 7.00

---

# IC50 annotations
Measurement Target: recombinant human GST-SYK (Homo sapiens)
Construct: purchased Carna Biosciences 08-176
Assay Method Text: Homogeneous Time-Resolved Fluorescence (HTRF) assay for the recombinant human Syk enzyme
Assay type: biochemical
Test Parameters: HTRF assay, recombinant human GST-SYK; IC50 given as class symbols; read-out: rhSYK Activity

In the examples that follow, each entry is paired with its recorded IC50.
Cc1cc(Nc2nccc(C3CC3)n2)cc(-c2ccc(C(C)(O)[C@H]3CC[C@H](C(=O)O)CC3)nc2)c1 (single isomer, unassigned) [Example 9.18] ... < 100 nM
COCC1CCCN1c1cc(-c2cc(C)cc(Nc3nccc(C(F)(F)F)n3)c2)ccn1 (centres unmarked) ... 100 to 1000 nM
Cc1cc(Nc2nccc(C(F)(F)F)n2)cc(-c2ccc(OC3CCC(C(=O)O)CC3)nc2)c1 (centres unmarked) [Example 2.110] ... < 100 nM
Cc1cc(Nc2nccc(C)n2)cc(-c2ccc(CCC(=O)O)nc2)c1 ... < 100 nM
COc1cc(-c2cccc(Nc3nccc(C(F)(F)F)n3)c2)ccn1 ... 100 to 1000 nM
Cc1cc(Nc2nccc(C(F)(F)F)n2)cc(-c2ccc(N3CCCC[C@H]3C(=O)O)nc2)c1 ... < 100 nM

IN: Identify measured IC50 corresponding to `Cc1cc(Nc2nccc(C(F)(F)F)n2)cc(-c2ccc(NS(=O)(=O)CC(=O)O)nc2)c1`
OUT: < 100 nM

IN: Identify measured IC50 corresponding to `Cc1cc(Nc2nccc(C(F)(F)F)n2)cc(-c2ccc(N(C)CC(=O)O)nc2)c1`
OUT: < 100 nM

---

Measurement Target: recombinant human GST-SYK (Homo sapiens, UniProt P43405)
Construct: purchased Carna Biosciences 08-176
Assay Method Text: Homogeneous Time-Resolved Fluorescence (HTRF) assay for the recombinant human Syk enzyme
Format: biochemical
Test Parameters: HTRF assay, recombinant human GST-SYK; IC50 given as class symbols; read-out: rhSYK Activity
Readout Type: IC50

Cc1cc(Nc2nccc(C(F)(F)F)n2)cc(-c2ccc(C(=O)NCC(O)CCCl)nc2)c1 (stereo not shown) [Example 16.35] ... 100 to 1000 nM

IN: // output IC50; input Cc1cc(Nc2nccc(C(F)(F)F)n2)cc(-c2cnc(N(C)C)c(C(=O)O)c2)c1 [Example 2.72] ; system recombinant human GST-SYK (Homo sapiens, UniProt P43405)
OUT: < 100 nM

IN: // output IC50; input Cc1cc(Nc2nccc(C(F)(F)F)n2)cc(-c2ccnc(NCC(=O)N(C)C)c2)c1 [Example 15.82] ; system recombinant human GST-SYK (Homo sapiens, UniProt P43405)
OUT: 100 to 1000 nM

IN: // output IC50; input CCOC(=O)C1CCCC(O)(c2cncc(-c3cc(C)cc(Nc4nccc(C(F)(F)F)n4)c3)c2)C1 (stereo not shown) [Example 9.77] ; system recombinant human GST-SYK (Homo sapiens, UniProt P43405)
OUT: 100 to 1000 nM

IN: // output IC50; input Cc1cc(Nc2nccc(C(F)(F)F)n2)cc(-c2ccc(C(=O)NC(C)CO)nc2)c1 (stereo not shown) [Example 16.7] ; system recombinant human GST-SYK (Homo sapiens, UniProt P43405)
OUT: < 100 nM

IN: // output IC50; input CC1(C)CC(O)(c2ccc(-c3cc(F)cc(Nc4nccc(C(F)(F)F)n4)c3)cn2)CCC1C(=O)O (single isomer, unassigned) [Example 9.4] ; system recombinant human GST-SYK (Homo sapiens, UniProt P43405)
OUT: < 100 nM

IN: // output IC50; input Cc1cc(Nc2nccc(C(F)(F)F)n2)cc(-c2ccnc(N3CCC4(CCCC(=O)N4)CC3)c2)c1 [Example 15.25] ; system recombinant human GST-SYK (Homo sapiens, UniProt P43405)
OUT: 100 to 1000 nM
